Biological target: Human PKMYT1 (Homo sapiens, UniProt Q99640)
Construct: Human PKMYT1 75-362 was cloned as a TEV cleavable 6xHis fusion; 6xHis (TEV cleavable) (cleaved yes); made in house; host or cells: bacterial cells
Sequence (Q99640 75-362): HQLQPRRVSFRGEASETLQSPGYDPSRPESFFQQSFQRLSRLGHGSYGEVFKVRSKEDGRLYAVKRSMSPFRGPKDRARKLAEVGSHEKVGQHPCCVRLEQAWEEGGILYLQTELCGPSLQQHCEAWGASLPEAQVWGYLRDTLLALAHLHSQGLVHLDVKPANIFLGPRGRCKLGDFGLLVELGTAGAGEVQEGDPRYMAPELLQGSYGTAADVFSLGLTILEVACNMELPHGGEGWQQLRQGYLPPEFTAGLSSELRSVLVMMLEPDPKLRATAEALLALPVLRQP
Experiment: PKMYT1 biochemical ADP-Glo enzymatic assay
Conditions: ADP-Glo; 15 nM PKMYT1 kinase domain, 500 µM ATP, 60 minutes at 26° C.; banded
pIC50: −log10 of the molar value. Counter-ions that a name gives are not always drawn.
OBSERVATION TYPE: pIC50

The following compounds have reported results that may help.
>>> print(df.to_string())
                                   compound  observation_type  assay_result
0  Cc1ccc(O)c(C)c1NC(=O)c1cnc(Nc2ncc(C(F)(F)F)cn2)s1 [BAA-279]             pIC50        > 7.30
1  Cc1ccc(O)c(C)c1NC(=O)c1cnc(Nc2cc(-c3ccc(F)cc3)ccn2)s1 [BAA-294]             pIC50  6.00 to 7.30
2  Cc1ccc(O)c(C)c1NC(=O)c1cnc(Nc2ccn(CC(=O)N3CCC(C)(C)CC3)n2)s1 [BAA-137]             pIC50        > 7.30

pIC50 for Cc1ccc(O)c(C)c1NC(=O)c1cnc(Nc2ccn([C@@H]3CCN(C(=O)C(C)(C)C)C3)n2)s1 [BAA-080] ?
6.00 to 7.30

Also, Cc1ccc(O)c(C)c1NC(=O)c1cnc(Nc2ccn(CC(=O)N3CCCN(C)CC3)n2)s1 [BAA-171, (hydrochloride)] please.
> 7.30

Also, Cc1cc(Nc2ncc(C(=O)Nc3c(C)ccc(O)c3C)s2)nc(OCC(F)(F)F)n1 [BAA-319] please.
> 7.30

Also, CCNC(=O)N1CC[C@@H](n2ccc(Nc3ncc(C(=O)Nc4c(C)ccc(O)c4C)s3)n2)C1 [BAA-109] please.
6.00 to 7.30

Also, Cc1cn(-c2cccnc2)nc1Nc1ncc(C(=O)Nc2c(C)ccc(O)c2C)s1 [BAA-371] please.
> 7.30

Also, Cc1ccc(O)c(C)c1NC(=O)c1cnc(Nc2ccn(CCO)n2)s1 [BAA-011] please.
> 7.30

###

Target: WEE1 (Homo sapiens, UniProt P30291)
Construct: purchased Thermo Fisher PR7373A
Sequence (P30291 whole entry): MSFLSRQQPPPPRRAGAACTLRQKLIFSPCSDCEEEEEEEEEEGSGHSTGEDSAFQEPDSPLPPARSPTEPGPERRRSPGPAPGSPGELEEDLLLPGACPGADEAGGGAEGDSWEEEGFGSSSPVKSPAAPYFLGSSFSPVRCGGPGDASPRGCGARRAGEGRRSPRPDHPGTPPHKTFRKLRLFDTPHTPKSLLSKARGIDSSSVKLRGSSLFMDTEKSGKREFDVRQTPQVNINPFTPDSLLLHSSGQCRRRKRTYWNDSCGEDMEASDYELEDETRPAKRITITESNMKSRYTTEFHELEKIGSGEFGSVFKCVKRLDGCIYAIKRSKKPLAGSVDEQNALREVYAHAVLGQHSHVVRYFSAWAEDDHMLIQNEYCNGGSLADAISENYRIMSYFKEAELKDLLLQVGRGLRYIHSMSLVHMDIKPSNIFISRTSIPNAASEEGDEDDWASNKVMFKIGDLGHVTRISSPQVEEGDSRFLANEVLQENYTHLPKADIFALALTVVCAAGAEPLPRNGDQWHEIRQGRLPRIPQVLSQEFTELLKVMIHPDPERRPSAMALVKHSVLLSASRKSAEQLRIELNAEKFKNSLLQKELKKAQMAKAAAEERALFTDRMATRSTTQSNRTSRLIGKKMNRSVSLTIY
Test: Selectivity versus WEE1 assay (ADP-Glo enzymatic assay)
Assay type: biochemical
Conditions: fold difference in selectivity for PKMYT1 over WEE1; banded
OBSERVATION TYPE: PKMYT1 vs. WEE1 selectivity

The following compounds have reported results that may help.
                                   compound                         assay_target        assay_result
0  Cc1nc2cc(Nc3ncc(C(=O)Nc4c(C)ccc(O)c4C)s3)ccc2o1  WEE1 (Homo sapiens, UniProt P30291)  X (100-<1000 fold)
1  Cc1ccnc(Nc2ncc(C(=O)Nc3c(C)ccc(O)c3C)s2)n1  WEE1 (Homo sapiens, UniProt P30291)  Y (1000-5000 fold)
2  Cc1ccc(O)c(C)c1NC(=O)c1cnc(Nc2ncnn3cccc23)s1  WEE1 (Homo sapiens, UniProt P30291)  X (100-<1000 fold)
3  Cc1cn(CC(=O)N(C)CCO)nc1Nc1ncc(C(=O)Nc2c(C)ccc(O)c2C)s1  WEE1 (Homo sapiens, UniProt P30291)  Y (1000-5000 fold)

PKMYT1 vs. WEE1 selectivity for `Cc1ccc(O)c(C)c1NC(=O)c1cnc(Nc2cc(N3CCOCC3)ccn2)s1` ?
W (10-<100 fold)

Also, `Cc1ccc(O)c(C)c1NC(=O)c1cnc(Nc2cc(C#N)n(C)n2)s1` please.
W (10-<100 fold)

Also, Cc1c(O)cc(Br)c(C)c1NC(=O)c1cnc(Nc2cc(C)n(C3CCS(=O)(=O)C3)n2)s1 (centres unmarked) please.
W (10-<100 fold)

Also, `COC[C@@H]1CCCN1C(=O)Cn1cc(C)c(Nc2ncc(C(=O)Nc3c(C)ccc(O)c3C)s2)n1` please.
X (100-<1000 fold)

Also, `Cc1ccc(O)c(C)c1NC(=O)c1cnc(Nc2nn(CC(F)(F)F)c3ccccc23)s1` please.
X (100-<1000 fold)

Also, `Cc1ccc(O)c(C)c1NC(=O)c1cnc(Nc2nc(N3CCOCC3)ccc2Cl)s1` please.
X (100-<1000 fold)

###

Biological target: Human PKMYT1 (Homo sapiens)
Construct: Human PKMYT1 75-362 was cloned as a TEV cleavable 6xHis fusion; 6xHis (TEV cleavable) (cleaved yes); made in house; host or cells: bacterial cells
Experiment: PKMYT1 biochemical ADP-Glo enzymatic assay
Settings: ADP-Glo; 15 nM PKMYT1 kinase domain, 500 µM ATP, 60 minutes at 26° C.; banded
The reader will find reported IC50 values listed item by item below.

In [3]: df
Out[3]:
                      smiles_representation      assay_result
0  Cc1ccc(O)c(C)c1NC(=O)c1cnc(Nc2ccn(CC(=O)N3CCN(CCO)CC3)n2)s1           < 50 nM
1  Cc1ccc(O)c(C)c1NC(=O)c1cnc(Nc2ccn([C@H]3CCCN(C(=O)OC(C)(C)C)C3)n2)s1  1000 to 11000 nM
2  Cc1cn(-c2cccc(C(F)(F)F)c2)nc1Nc1ncc(C(=O)Nc2c(C)ccc(O)c2C)s1           < 50 nM
3  CCN(C(=O)C(C)(C)C)c1ccc(C)c(Nc2ncc(C(=O)Nc3c(C)ccc(O)c3C)s2)n1           < 50 nM
4  Cc1cn(CC(F)(F)F)nc1Nc1ncc(C(=O)Nc2c(C)ccc(O)c2C)s1           < 50 nM

API: the following record is the query input.
IC50 for `Cc1ccc(O)c(C)c1NC(=O)c1cnc(Nc2nn(C)c3ccccc23)s1` ?
< 50 nM

###

The reader will find reported IC50 values listed item by item below.
Target: Human PKMYT1 (Homo sapiens, UniProt Q99640)
Construct: Human PKMYT1 75-362 was cloned as a TEV cleavable 6xHis fusion; 6xHis (TEV cleavable) (cleaved yes); made in house; host or cells: bacterial cells
Assay: PKMYT1 biochemical ADP-Glo enzymatic assay
Conditions: PKMYT1 kinase domain 15 nM; ADP-Glo; banded values

The following compounds have reported results that may help.
>>> print(df.to_string())
                                   compound  observation_type  assay_result
0  Cc1cn(CC(=O)N2CCCC2)nc1Nc1ncc(C(=O)Nc2c(C)cc(Cl)c(O)c2C)s1 [BAA-553]              IC50  0.05 to 1 µM
1  Cc1ccc(O)c(C)c1NC(=O)c1cnc(Nc2ncc(C(C)(C)C)o2)s1 [BAA-449]              IC50  0.05 to 1 µM
2  Cc1cc(C)c(NC(=O)c2cnc(Nc3ccn(C)n3)s2)c(C)c1O [BAA-517]              IC50    1 to 11 µM
3  COC[C@H]1CCCN1C(=O)Cn1cc(C)c(Nc2ncc(C(=O)Nc3c(C)ccc(O)c3C)s2)n1 [BAA-599]              IC50     < 0.05 µM
4  Cc1cn(C(C)C(=O)N2CCCC2)nc1Nc1ncc(C(=O)Nc2c(C)ccc(O)c2C)s1 (stereo not drawn) [BAA-488]              IC50     < 0.05 µM

IC50 for Cc1ccc(O)c(C)c1NC(=O)c1cnc(Nc2nn(C)cc2Br)s1 [BAA-473] ?
< 0.05 µM

###

Molecular target: WEE1 (Homo sapiens, UniProt P30291)
Construct: purchased Thermo Fisher PR7373A
Assay: Selectivity versus WEE1 assay (ADP-Glo enzymatic assay)
Assay type: biochemical
Settings: fold difference in selectivity for PKMYT1 over WEE1; banded
OBSERVATION TYPE: PKMYT1 vs. WEE1 selectivity

>>> print(df.to_string())
                                   molecule        assay_result
0  CCN(C(=O)Cc1cccc(Nc2ncc(C(=O)Nc3c(C)ccc(O)c3C)s2)n1)C1CC1      Z (>5000 fold)
1  Cc1ccc(O)c(C)c1NC(=O)c1cnc(Nc2nn(CC(F)F)cc2Cl)s1  X (100-<1000 fold)
2  Cc1cn(CC(=O)N2CCC(C(F)(F)F)C2)nc1Nc1ncc(C(=O)Nc2c(C)ccc(O)c2C)s1 (stereo not shown)  X (100-<1000 fold)
3  Cc1ccc(O)c(C)c1NC(=O)c1cnc(Nc2cc(N3CCNCC3)ncn2)s1    W (10-<100 fold)
4  CCOc1ccc(Nc2ncc(C(=O)Nc3c(C)ccc(O)c3C)s2)cc1    W (10-<100 fold)
5  Cc1c(O)ccc(Br)c1NC(=O)c1cnc(Nc2ccn(C)n2)s1    W (10-<100 fold)

PKMYT1 vs. WEE1 selectivity for CCN(C(=O)C(CO)n1cc(C)c(Nc2ncc(C(=O)Nc3c(C)ccc(O)c3C)s2)n1)C1CC1 (stereo not shown) ?
X (100-<1000 fold)

Also, `Cc1ccc(O)c(Br)c1NC(=O)c1cnc(Nc2ccn(CC(=O)N3CCCC3)n2)s1` please.
X (100-<1000 fold)

Also, `Cc1ccc(O)c(C)c1NC(=O)c1cnc(Nc2cnn(CC(=O)N3CCCC3)c2)s1` please.
W (10-<100 fold)

Also, `Cc1ccc(O)c(C)c1NC(=O)c1cnc(Nc2cc(C(=O)N3CCOCC3)n(C)n2)s1` please.
W (10-<100 fold)

Also, `Cc1nc(Cl)cc(Nc2ncc(C(=O)Nc3c(C)ccc(O)c3C)s2)n1` please.
Z (>5000 fold)

Also, `Cc1cn(CCF)nc1Nc1ncc(C(=O)Nc2c(C)ccc(O)c2C)s1` please.
X (100-<1000 fold)

Also, `Cc1ccc(O)c(C)c1NC(=O)c1cnc(Nc2n[nH]cc2F)s1` please.
X (100-<1000 fold)

Also, `Cc1ccc(O)c(C)c1NC(=O)c1cnc(Nc2cccc(N(C)CCC#N)n2)s1` please.
W (10-<100 fold)

Also, CCN(CC)C(=O)C(C)n1cc(C)c(Nc2ncc(C(=O)Nc3c(C)ccc(O)c3C)s2)n1 (stereo not shown) please.
X (100-<1000 fold)

Also, `Cc1ccc(O)c(C)c1NC(=O)c1cnc(Nc2nn(CCF)cc2Cl)s1` please.
X (100-<1000 fold)

Also, `CCN(CC)C(=O)Cn1cc(Cl)c(Nc2ncc(C(=O)Nc3c(C)ccc(O)c3C)s2)n1` please.
X (100-<1000 fold)

Also, `CCn1cc(C)c(Nc2ncc(C(=O)Nc3c(C)ccc(O)c3C)s2)n1` please.
X (100-<1000 fold)

Also, `Cn1cc(Br)c(Nc2ncc(C(=O)Nc3c(F)ccc(O)c3Cl)s2)n1` please.
X (100-<1000 fold)

Also, `Cn1cc(Br)c(Nc2ncc(C(=O)Nc3c(Cl)ccc(O)c3F)s2)n1` please.
X (100-<1000 fold)

Also, `COc1cnc(Cl)nc1Nc1ncc(C(=O)Nc2c(C)ccc(O)c2C)s1` please.
X (100-<1000 fold)
